- assay-system: T1, hCMV gB (expressed in HEK293T cells) (human cytomegalovirus, UniProt P06473 32-906)
- T1 construct: whole, on cells; also called envelope glycoprotein B; UL55
- T1 sequence (P06473 32-906 limits assumed): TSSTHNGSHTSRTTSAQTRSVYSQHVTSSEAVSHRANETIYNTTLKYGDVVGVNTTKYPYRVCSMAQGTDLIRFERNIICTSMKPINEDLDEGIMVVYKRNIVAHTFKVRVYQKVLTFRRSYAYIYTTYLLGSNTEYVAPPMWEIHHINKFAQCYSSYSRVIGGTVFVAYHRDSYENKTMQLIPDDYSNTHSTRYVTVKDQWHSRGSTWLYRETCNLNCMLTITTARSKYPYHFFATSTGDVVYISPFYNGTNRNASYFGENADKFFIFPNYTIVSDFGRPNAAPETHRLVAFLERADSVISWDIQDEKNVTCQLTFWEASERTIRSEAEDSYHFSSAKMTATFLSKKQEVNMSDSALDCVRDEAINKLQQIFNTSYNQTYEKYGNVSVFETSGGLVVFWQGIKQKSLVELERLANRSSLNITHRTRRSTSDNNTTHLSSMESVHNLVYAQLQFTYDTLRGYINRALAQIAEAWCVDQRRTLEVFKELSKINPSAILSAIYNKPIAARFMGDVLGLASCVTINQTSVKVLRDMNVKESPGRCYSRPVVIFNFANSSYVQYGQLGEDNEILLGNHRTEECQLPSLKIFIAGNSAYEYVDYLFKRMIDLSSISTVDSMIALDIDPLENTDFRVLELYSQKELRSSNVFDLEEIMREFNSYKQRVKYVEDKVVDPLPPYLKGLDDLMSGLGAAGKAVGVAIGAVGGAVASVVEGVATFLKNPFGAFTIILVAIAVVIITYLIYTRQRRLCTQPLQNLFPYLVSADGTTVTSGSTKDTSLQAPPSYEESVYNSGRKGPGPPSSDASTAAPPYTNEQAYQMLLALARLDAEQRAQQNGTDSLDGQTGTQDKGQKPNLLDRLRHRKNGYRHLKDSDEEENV
- protocol: competitor: 10C6-biotin; cell staining
This listing pairs binders with measured Inhibition of binding (%).
Numbers only; they are read as %.

# input Consider the binder 5F1 (antibody, V domains shown, human IgG; also called 5F1-biotin) VH: AVQLVESGGGLAQPGRSLRLSCKVSGFTFSSYEMNWVRQAPGKGLEWIAYIDFTGSTIYYADSVKGRFTISRDTARNSLYLQMNKLRVEDTAVYYCVRDAGRWGTSWYYFDYWGQGTLVTVSS VL: QSVLTQPPSVSGAPGQRVTISCTGLSSNIGAGYDIHWYQQIPGKAPKLLIYGNNNRPSGVPDRFSGSKSGTSVSLAITGLQAEDEADYYCQSYDSSLNGWVFGGGTRLTVL . State its measured Inhibition of binding (%).
# output 100
